Hello, the source for this data is patent US20030236190A1, in case you need it.

# STUDY_TARGET: T1, Insulin receptor (IR) prepared according to Bass et al., 1996 (human, UniProt P06213 28-956)
# T1 construct: extracellular domain; also called soluble IR (Bass construct); sIR-Fc; not shown: immunoglobulin heavy chain constant domains of the Bass chimera
No end group written: not given here.
# note: exactly 2 ratio over background is not below, so it is False; use True for ratio over background, IR strictly under it

[
  {
    "BINDER": "VRGFQGGTVWPGYEWLRNAA (not fully specified (N-terminus, C-terminus)) [R20β-E8-IR]",
    "CLASS": "False"
  },
  {
    "BINDER": "MNVFVSFYDAIDQLVCQRIGC (not fully specified (N-terminus, C-terminus, bridges); cysteine pairing not given here) [20E2A-4-G11-IGFR]",
    "CLASS": "True"
  },
  {
    "BINDER": "LSCLAYSRHGIWRPSTDLGLGRSVGEGSVSTRWRGYDWFE [40F-4-D1-IGFR]",
    "CLASS": "True"
  },
  {
    "BINDER": "QSGSGDFYDWLSRLIRGNGDG (not fully specified (N-terminus, C-terminus)) [20E2Bβ-3-C7-IR]",
    "CLASS": "True"
  },
  {
    "BINDER": "GHYFGSFYDAIDQLVAGMLPG [20E2A-3-A3-IGFR]",
    "CLASS": "True"
  },
  {
    "BINDER": "AETSAQVGWQRLWSVWPGDHWSTLDPFYHKLSELLRESGA (not fully specified (residue 27, N-terminus, C-terminus); printed as AETSAQVGWQRLWSVWPGDHWSTLDP9YHKLSELLRESGA) [26L-3-G5-IR]",
    "CLASS": "True"
  }
]
